test system: SARS-CoV-2 strain USA-WA1 2020 (nLuc reporter); experiment: microbe, parasite or virus in culture; type: cell-based; conditions: Severe acute respiratory syndrome coronavirus 2, Epithelial cell; read-out: average EC50, SARS-CoV-2 replication
property name: EC50 (µM)
Dear colleague, please return just the value in µM, with no unit written.

Entry `Cc1nc(N)c2c(C(N)=O)cn([C@@H]3O[C@H](CO)[C@@H](O)[C@H]3O)c2n1` has what EC50?
0.9

====

assay: in vivo; conditions: female, BALB/c, mouse, 5 mg, Mean Plasma Compound 1 Concentration
property name: concentration at 1 h (ng/mL)
Dear colleague, please return just the value in ng/mL, with no unit written.

Entry Cc1nc(N)c2c(C(N)=O)cn([C@@H]3O[C@H](CO)[C@@H](O)[C@H]3O)c2n1 [Compound 1] has what concentration at 1 h?
41.8
